Source listed as patent US20250270287A1.

Biological target: T1, growth differentiation factor 8 (GDF-8) (UniProt O14793 267-375)
T1 construct: also called myostatin
T1 sequence (looked up): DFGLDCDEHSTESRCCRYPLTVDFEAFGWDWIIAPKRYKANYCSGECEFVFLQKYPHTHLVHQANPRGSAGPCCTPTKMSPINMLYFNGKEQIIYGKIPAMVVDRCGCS
Test: SPR (Biacore 8K), Fc protein captured on anti-human IgG, ligand injected
pKd: −log10 of the molar value.
Classify as follows. Reported pKd greater than or equal to 10: y. Reported pKd below: n.

[
  {
    "binder": "ActRIIB-A2 (SEQ ID NO: 121) chimera-Fc protein (Fc fusion, Tested as chimera-Fc protein; not shown: linker (if any) and Fc domain) GRGEAETRECIYYNANWEKDRTNQSGLERCEGEQDKRLHCYASWRNSSGTIELVKKGCWLDDFNCYDRQECVATEENPQVYFCCCEGNFCNERFTHLPEAGGPEVTYEPPPTAPT",
    "class": "y"
  },
  {
    "binder": "ActRIIA-A1 (SEQ ID NO: 104) chimera-Fc protein (Fc fusion, Tested as chimera-Fc protein; not shown: linker (if any) and Fc domain) GRGEAETRECLFFNANWEKDRTNQTGVEPCYGDKDKRRHCFATWKNISGSIEIVKQGCWLDDINCYDRTDCVEKKDSPEVYFCCCEGNMCNEKFSYFPEMEVTQPTS",
    "class": "n"
  },
  {
    "binder": "ActRIIB-A5 (SEQ ID NO: 123) chimera-Fc protein (Fc fusion, Tested as chimera-Fc protein; not shown: linker (if any) and Fc domain) GRGEAETRECIYYNANWELERTNQSGLERCEGEQDKRLHCYASWRNSSGTIELVKKGCWLDDINCYDRTDCVATEENPQVYFCCCEGNFCNERFTHLPEAGGPEVTYEPPPTAPT",
    "class": "y"
  },
  {
    "binder": "ActRIIA-A8 (SEQ ID NO: 110) chimera-Fc protein (Fc fusion, Tested as chimera-Fc protein; not shown: linker (if any) and Fc domain) GAILGRSETQECLFFNANWEKDRTNQTGVEPCYGDKDKRRHCFATWKNISGSIEIVKQGCWLDDINCYDRTDCVEKKDSPEVYFCCCEGNMCNEKFSYFPEAGGPEVTYEPPPTAPT",
    "class": "n"
  }
]

--- query ---
[Q] Given ActRIIB-B7 (SEQ ID NO: 115) chimera-Fc protein (Fc fusion, Tested as chimera-Fc protein; not shown: linker (if any) and Fc domain) GRGEAETRECIYYNANWELERTNQSGLERCEGEQDKRLHCYASWRNSSGTIELVKKGCWLDDFNCYDRQECVATEENPQVYFCCCEGNFCNEKFSYFPEAGGPEVTYEPPPTAPT , state whether its pKd is at least 10.
[A] y
